target: AuroraB (Homo sapiens, UniProt Q96GD4); construct: 20 μL of AuroraB FL H is for a final volume of 41 μL; His; experiment: AuroraB Homogeneous Time Resolved Fluorescent (HTRF) kinase assay; type: biochemical; conditions: average; read-out: AurB_IC50_IP (uM Avg)
Sequence (Q96GD4 whole entry): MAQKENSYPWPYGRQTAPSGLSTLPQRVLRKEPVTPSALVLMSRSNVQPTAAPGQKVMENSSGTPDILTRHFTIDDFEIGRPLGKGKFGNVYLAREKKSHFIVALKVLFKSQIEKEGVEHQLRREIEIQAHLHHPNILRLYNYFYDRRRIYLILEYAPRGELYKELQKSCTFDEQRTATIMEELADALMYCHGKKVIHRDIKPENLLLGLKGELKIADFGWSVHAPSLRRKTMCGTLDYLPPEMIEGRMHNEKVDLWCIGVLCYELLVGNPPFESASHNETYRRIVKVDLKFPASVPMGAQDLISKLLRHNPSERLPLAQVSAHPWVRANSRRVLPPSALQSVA
What IC50 was measured for each of the following?
Express it in µM; write the number only.

Check the records and state IC50 for `COc1cc2c(Oc3ccc(Nc4nnc(-c5ccccc5)c5ccccc45)cc3)ccnc2cc1O` 0.013

Check the records and state IC50 for `COc1cnc2c(Oc3ccc(Nc4nnc(-c5cnc6[nH]ccc6c5)c5ccccc45)cc3)ccnc2c1` 0.002

Check the records and state IC50 for COc1cnc2c(Oc3ccc(Nc4nnc(-c5ccc6c(c5)OCO6)c5ccccc45)cc3)ccnc2c1 [compound 306] 0.03

Check the records and state IC50 for `CCc1cc(-c2ccc(C)s2)nnc1Nc1ccc(Oc2ccnc3cc(OC)cnc23)cc1` 0.004

Check the records and state IC50 for `FC(F)(F)Oc1ccc2c(Oc3ccc(Nc4nnc(-c5ccccc5)c5ccccc45)cc3)ccnc2c1` 0.374

Check the records and state IC50 for `COc1cnc2c(Sc3ccc(Nc4nnc(C5=CCNCC5)c5ccccc45)cc3)ccnc2c1` 0.052

Check the records and state IC50 for `Fc1cc(Nc2nnc(-c3ccccc3)c3ccccc23)ccc1Oc1ccnc2ccccc12` 0.006

Check the records and state IC50 for `COc1ccc2nccc(Sc3ccc(Nc4nnc(-c5cccc(C)n5)c5ccccc45)cc3)c2n1` 0.026

Check the records and state IC50 for COc1cnc2c(Oc3ccc(Nc4nnc(-c5ccc6c(c5)OCO6)c5ccccc45)cc3)ccnc2c1 [Example 165] 0.007

Check the records and state IC50 for `Clc1ccc(-c2nnc(Nc3ccc(Oc4ccnc5ccsc45)cc3)c3ccccc23)cc1` 0.003

Check the records and state IC50 for `N#Cc1ccc2c(Oc3ccc(Nc4nnc(-c5ccc(C(F)(F)F)cc5)c5ccccc45)cc3)ccnc2c1` 0.011

Check the records and state IC50 for `COc1cc2nccc(Oc3ccc(Nc4nnc(-c5ccccc5)c5ccccc45)cc3)c2cc1OC` 0.025

Check the records and state IC50 for `Cc1ccc(-c2nnc(Nc3ccc(Oc4ccnc5ccccc45)c(F)c3)c3ccccc23)cc1` 0.005

Check the records and state IC50 for `CCc1cc(-c2ccccc2)nnc1Nc1ccc(Sc2ccnc3cc(OC)cnc23)cc1` 0.004

Check the records and state IC50 for `COc1cnc2c(Sc3ccc(Nc4nnc(N5CCN6CCC[C@H]6C5)c5ccccc45)cc3)ccnc2c1` 0.009

Check the records and state IC50 for `Cc1csc(-c2nnc(Nc3ccc(Sc4ccnc5cc[nH]c45)cc3)c3ccccc23)c1` 0.006

Check the records and state IC50 for `COc1cnc2c(Sc3ccc(Nc4nnc(-c5ccc6cn[nH]c6c5)c5ccccc45)cc3)ccnc2c1` 0.032

Check the records and state IC50 for `CCOc1nc(-c2nnc(Nc3ccc(Sc4ccnc5cc(OC)cnc45)cc3)c3ccccc23)cs1` 0.014

Check the records and state IC50 for `COc1cnc2c(Sc3ccc(Nc4nnc(-c5ccccc5F)c5ccccc45)cc3)ccnc2c1` 0.026

Check the records and state IC50 for `Cc1csc(-c2nnc(Nc3ccc(Sc4ccnc5cccnc45)cc3)c3ccccc23)c1` 0.01

Check the records and state IC50 for `Cc1ccc(-c2nnc(Nc3ccc(Oc4ccnc5ccoc45)cc3)c3ccccc23)cc1N` 0.013

Check the records and state IC50 for `c1ccc2c(Sc3ccc(Nc4nnc(-c5ccc6c(c5)OCO6)c5ccccc45)cc3)ccnc2c1` 0.017

Check the records and state IC50 for `Fc1ccc2c(Oc3ccc(Nc4nnc(-c5ccc(Cl)cc5)c5ccccc45)cc3)ccnc2c1` 0.013

Check the records and state IC50 for COc1cnc2c(Oc3ccc(Nc4nnc(-c5cccc(C)c5)c5ccccc45)cc3)ccnc2c1 [compound 299] 0.015

---

molecular target: AuroraB (Homo sapiens, UniProt Q96GD4); construct: 20 μL of AuroraB FL H is for a final volume of 41 μL; His; assay: AuroraB Homogeneous Time Resolved Fluorescent (HTRF) kinase assay; type: biochemical; details: average; read-out: AurB_IC50_IP (uM Avg)
Endpoint label: IC50 (µM)
Express it in µM; write the number only.

Check the records and state IC50 for COc1cnc2c(Oc3ccc(Nc4nnc(-c5ccc(Cl)cc5)c5ccccc45)cn3)ccnc2c1 [compound 222] 0.006

Check the records and state IC50 for COc1cc2nccc(Oc3ccc(Nc4nnc(-c5ccc(C(C)(C)C)cc5)c5ccccc45)cc3)c2cc1OC [compound 106] 0.038

Check the records and state IC50 for c1ccc(-c2nnc(Nc3ccc(Sc4ccnc5ccsc45)cc3)c3ccccc23)cc1 [compound 355] 0.006

Check the records and state IC50 for COc1cc2ncnc(Oc3ccc(Nc4nnc(-c5ccccc5)c5ccccc45)cc3)c2cc1OC [compound 98] 0.007

Check the records and state IC50 for Clc1ccc(-c2nnc(Nc3ccc(Sc4ccnc5ccoc45)cc3)c3ccccc23)cc1 [compound 465] 0.012

Check the records and state IC50 for c1ccc2c(-c3ccc4c(c3)OCO4)nnc(Nc3ccc(Sc4ccnc5ccoc45)cc3)c2c1 [compound 467] 0.01

---

Target: AuroraA-TPX2 (Homo sapiens, UniProt O14965)
Construct: 20 μL of AuroraA-TPX2 KD GST for a final volume of about 41 μL; GST
Sequence (O14965 133-383 limits assumed): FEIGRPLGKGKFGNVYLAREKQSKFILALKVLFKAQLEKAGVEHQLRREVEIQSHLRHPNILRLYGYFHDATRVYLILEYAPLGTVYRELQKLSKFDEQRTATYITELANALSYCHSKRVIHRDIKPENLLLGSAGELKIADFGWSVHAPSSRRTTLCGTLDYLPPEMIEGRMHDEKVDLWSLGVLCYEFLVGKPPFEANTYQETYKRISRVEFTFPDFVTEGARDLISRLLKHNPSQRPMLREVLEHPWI
Sequence (Q9ULW0 1-43 partner limits assumed): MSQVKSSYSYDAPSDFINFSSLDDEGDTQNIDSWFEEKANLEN
Test: AuroraA-TPX2 Homogeneous Time Resolved Fluorescent (HTRF) kinase assay
Format: biochemical
Details: average; read-out: AurA_IC50_IP (uM Avg)
# strict inequality: IC50 < 0.03 µM yields condition met, everything else yields condition not met

Decide: IC50 of Clc1ccc(-c2nnc(Nc3ccc(Oc4ncnc5[nH]cnc45)cc3)c3ccccc23)cc1 [compound 266] strictly below 0.03 µM? condition not met

Decide: IC50 of COc1ccc(-c2nnc(Nc3ccc(Oc4ccnc5cc(OC)cnc45)cc3)c3ccccc23)cc1 [Example 37] strictly below 0.03 µM? condition met

Decide: IC50 of COc1cnc2c(Sc3ccc(Nc4nnc(-c5ccc(C)c(O)c5)c5ccccc45)cc3)ccnc2c1 [compound 451] strictly below 0.03 µM? condition not met

Decide: IC50 of COc1cnc2c(Oc3ccc(Nc4nnc(-c5ccc(OC)c(C)c5)c5ccccc45)cc3)ccnc2c1 [compound 213] strictly below 0.03 µM? condition not met

Decide: IC50 of c1ccc(-c2nnc(Nc3ccc(Sc4ccnc5ccccc45)cc3)c3ccccc23)cc1 [compound 310] strictly below 0.03 µM? condition not met

Decide: IC50 of COc1cnc2c(Sc3ccc(Nc4nnc(-c5ccc6occc6c5)c5ccccc45)cc3)ccnc2c1 [compound 501] strictly below 0.03 µM? condition met

Decide: IC50 of COc1cnc2c(Oc3ccc(Nc4nnc(-c5ccccc5)c5ccccc45)cc3F)ccnc2c1 [compound 89] strictly below 0.03 µM? condition met

Decide: IC50 of COc1cnc2c(Oc3ccc(Nc4nnc(-c5ccc(C)c(N)c5)c5cc(F)c(F)cc45)cc3)ccnc2c1 [compound 545] strictly below 0.03 µM? condition not met

Decide: IC50 of COc1cnc2c(Oc3ccc(Nc4nnc(-c5ccc6cc[nH]c6c5)c5ccccc45)cc3)ccnc2c1 [compound 206] strictly below 0.03 µM? condition met

---

biological target: AuroraB (Homo sapiens); construct: 20 μL of AuroraB FL H is for a final volume of 41 μL; His; experiment: AuroraB Homogeneous Time Resolved Fluorescent (HTRF) kinase assay; assay type: biochemical; conditions: average; read-out: AurB_IC50_IP (uM Avg)
Endpoint label: IC50 (µM)
Express it in µM; write the number only.

Check the records and state IC50 for `Cc1csc(-c2nnc(Nc3ccc(Sc4ccnc5ccc(=O)[nH]c45)cc3)c3ccccc23)c1` 0.008

Check the records and state IC50 for `COc1cnc2c(Sc3ccc(Nc4nnc(OC(C)C)c5ccccc45)cc3)ccnc2c1` 0.069

Check the records and state IC50 for `COC1CCN(c2nnc(Nc3ccc(Oc4ccnc5ccoc45)cc3)c3ccccc23)CC1` 0.074

Check the records and state IC50 for COc1cnc2c(Oc3ccc(Nc4nnc(-c5cc(Cl)cs5)c5ccccc45)cc3)ccnc2c1 [compound 298] 0.023

Check the records and state IC50 for `Clc1ccc(-c2nnc(Nc3ccc(Sc4ccnc5c4CCCN5)cc3)c3ccccc23)cc1` 0.008

Check the records and state IC50 for `COc1cnc2c(Oc3ccc(Nc4nnc(-c5ccc(Cl)c(C)c5)c5ccccc45)cc3)ccnc2c1` 0.008

Check the records and state IC50 for `Cc1ccc(-c2nnc(Nc3ccc(Oc4ccnc5cccnc45)cc3)c3ccccc23)cc1N` 0.003

Check the records and state IC50 for `COc1ccc2c(Cc3ccc(Nc4nnc(-c5ccccc5)c5ccccc45)cc3)ccnc2c1` 0.02

Check the records and state IC50 for `Cc1csc(-c2nnc(Nc3ccc(Sc4ccnc5cc(C(=O)N6CCOCC6)sc45)cc3)c3ccccc23)c1` 0.03

Check the records and state IC50 for `COc1cnc2c(Oc3ccc(Nc4nnc(-c5ccc6c(c5)OCCN6C)c5ccccc45)cc3)ccnc2c1` 0.005

Check the records and state IC50 for `COc1cnc2c(Sc3ccc(Nc4nnc(-c5ccc6c(c5)OCO6)c5ccccc45)cc3F)ccnc2c1` 0.022

Check the records and state IC50 for `COc1cnc2c(Oc3ccc(Nc4nnc(-c5cc(C)cc(C)c5)c5ccccc45)cc3)ccnc2c1` 0.006

Check the records and state IC50 for `COc1cnc2c(Sc3ccc(Nc4nnc(OCC(F)(F)F)c5ccccc45)cc3)ccnc2c1` 0.03

Check the records and state IC50 for `Cc1cccc(-c2nnc(Nc3ccc(Sc4ccnc5cccnc45)cc3)c3ccccc23)n1` 0.008

Check the records and state IC50 for `N#Cc1cc2nccc(Sc3ccc(Nc4nnc(-c5ccc(Cl)cc5)c5ccccc45)cc3)c2o1` 0.019

Check the records and state IC50 for `COc1cc(OC)c2c(Oc3ccc(Nc4nnc(-c5ccc(Cl)cc5)c5ccccc45)cc3)ncnc2c1` 0.02

Check the records and state IC50 for `COc1cnc2c(Oc3ccc(Nc4nnc(-c5ccc(C)c(OC)c5)c5ccccc45)cc3)ccnc2c1` 0.028

Check the records and state IC50 for `COc1cnc2c(Sc3ccc(Nc4nnc(OC)c5ccccc45)cc3)ccnc2c1` 0.015

Check the records and state IC50 for c1ccc(-c2nnc(Nc3ccc(Sc4ccnc5cccnc45)cc3)c3ccccc23)cc1 [compound 285] 0.002

Check the records and state IC50 for `c1ccc(-c2nnc(Nc3ccc(Sc4ccnc5ccccc45)cc3)c3ccccc23)cc1` 0.017

Check the records and state IC50 for `Clc1ccc(-c2nnc(Nc3ccc(CN4CCOc5ccccc54)cc3)c3ccccc23)cc1` 0.045

Check the records and state IC50 for `COCCOCCOc1ccc2nccc(Sc3ccc(Nc4nnc(-c5ccc(Cl)cc5)c5ccccc45)cc3)c2c1` 0.022

Check the records and state IC50 for `COc1cc2nccc(Sc3ccc(Nc4nnc(-c5cc(C)cs5)c5ccccc45)cc3)c2cn1` 0.017

Check the records and state IC50 for `Cc1cccc(-c2nnc(Nc3ccc(Sc4ccnc5ccoc45)cc3)c3ccccc23)n1` 0.015

Check the records and state IC50 for `Cc1cc2nccc(Sc3ccc(Nc4nnc(-c5ccc(Cl)cc5)c5ccccc45)cc3)c2s1` 0.098

Check the records and state IC50 for `COc1cnc2c(Oc3ccc(Nc4nnc(-c5ccc6c(ccn6C)c5)c5ccccc45)cc3)ccnc2c1` 0.003

Check the records and state IC50 for `COc1cc2ncnc(Oc3ccc(Nc4nnc(-c5cc(C)ccn5)c5ccccc45)cc3)c2cc1OC` 0.015

All values here come from patent US8557816B2.
